# System: SK-OV-3
# runDescription: NCI tumour cell line growth inhibition, 48 h
Calls of active or inactive are those of the source. No stated cut-off is given here; in the data, active = GI50 up to about 1.1 µM and inactive = higher.
Quick list: GI50 per entry.

Worked examples follow.
CSc1ccc(/C=C2\N=C(c3ccccc3)N(NC(=O)c3c(Cl)c(Cl)c(Cl)c(Cl)c3-c3nc4ccccc4[nH]3)C2=O)cc1
5.48 µM (inactive)
CCOC(=O)C(=O)Nc1c(CC)cccc1C(C)C
> 100 µM (inactive)
CC(C)(C)OC(=O)C1=C(O)C(C(=O)OC(C)(C)C)C23CCCCC12C(C(=O)OC(C)(C)C)C(O)=C3C(=O)OC(C)(C)C (stereo not given)
> 100 µM (inactive)

For record COC(=O)C1=C(C)N2[C@H](C(=O)O)CS[C@@]2(C)[C@H](C(=O)OC)[C@H]1c1cccc([N+](=O)[O-])c1 the listed GI50 is > 100 µM (inactive)

GET /value?item= COC(=O)C(=O)C(C(=O)C(=O)Nc1ccc(Cl)c(Cl)c1)c1nc2ccc(C(=O)c3ccccc3)cc2nc1O (stereo not given) &field=GI50 returns 97.3 µM (inactive)

Reported GI50 ( CCc1nc(N)nc(N)c1-c1ccc(Cl)c(/N=N/N(C)C)c1 ) = > 89.3 µM (inactive)

Entry CCOC(=O)/C(C(=O)Nc1cccc(Cl)c1)=C(/N)N1CCCC1 — recorded GI50 = > 100 µM (inactive)

Looking up C[n+]1cn(-c2ccc([N+](=O)[O-])cn2)c2ccccc21 , I see its GI50 listed as > 100 µM (inactive)

Please fill in: GI50 reported for COc1c(F)c(F)c(C(=O)/C=C2\Nc3ccccc3NC2=O)c(F)c1F = 4.57 µM (inactive)

So, CCOC(=O)c1c(SC)nc(-c2ccc(Cl)cc2)sc1=N.[O-][Cl+3]([O-])([O-])O ? Its GI50 was 37.2 µM (inactive)

GI50 measured on CC1(C)Oc2ccccc2N2O[C@@H]3C(=O)N(c4ccccc4)C(=O)[C@@H]3C21c1ccccc1 (stereo not given in full) = 22.1 µM (inactive)

Record COC(=O)c1oc([N+](=O)[O-])c(-c2ccccc2)c1-c1ccccc1 . Reported GI50: > 100 µM (inactive)

Entry Nc1nc(N)c2cc(-c3cc4ccccc4[nH]3)ccc2n1 ; GI50 = 45.3 µM (inactive)

Form: compound = NCCCCN(CCCN)Cc1ccc2ccccc2c1 ; GI50 = 96.4 µM (inactive)

Entry Cc1ccc(-n2c(O)c(C#N)c3[nH]nc(N)c3c2=O)cc1 — recorded GI50 = > 100 µM (inactive)
